These entries and their values trace back to patent US20100035756A1.

- System: Monocotyledonous and dicotyledonous test plants
- Protocol summary: Herbicidal action prior to emergence of the plants (pre-emergence action), Example B1
- Type: in vivo
- Measurement parameters: preemergence application, 250 g/ha, ECHCG, evaluated after 4 weeks; 100%=total damage, 0%=no damage
Would you mind telling me the reported herbicidal damage, ECHCG of each entry?
The answer consists of two parts: a number and, after it, its unit.

Before answering, review these 5 worked examples.
O=C1CCCC(O)=C1C(=O)c1ccc(C(F)(F)F)n2c(-c3cccnc3)nnc12 [Compound 3.15]	30%
COCc1nnc2c(C(=O)C3=C(O)C(C)(C)C(=O)C(C)(C)C3=O)ccc(C(F)(F)F)n12 [Compound 5.5]	60%
O=C(C1=C(O)C2CCC(C2)C1=O)c1ccc(C(F)(F)F)n2nc(Cl)nc12 (centres unmarked) [2.2]	70%
O=C(C1=C(O)C2CCC(C2)C1=O)c1ccc(C(F)(F)F)n2ncnc12 (centres unmarked) [2.1]	90%
CC1(C)C(=O)C(C(=O)c2ccc(C(F)(F)F)n3cnnc23)=C(O)C(C)(C)C1=O [Compound 5.1]	90%

For each of the items listed, what is its herbicidal damage, ECHCG?
1. Cc1nc2c(C(=O)C3=C(O)C(C)(C)C(=O)C(C)(C)C3=O)ccc(C(F)(F)F)n2n1 [13.3]
2. CCOc1nc2c(C(=O)C3=C(O)C4CCC(C4)C3=O)ccc(C(F)(F)F)n2n1 (centres unmarked) [2.209]
3. O=C(C1=C(O)C2CCC(C2)C1=O)c1ccc(C(F)(F)F)n2nc(-c3ccc(Cl)cc3)nc12 (centres unmarked) [2.35]
4. CC(C)c1nnc2c(C(=O)C3=C(O)C4CCC(C4)C3=O)ccc(C(F)(F)F)n12 (centres unmarked) [Compound 1.7]
5. CCSc1nnc2c(C(=O)C3=C(O)C4CCC(C4)C3=O)ccc(C(F)(F)F)n12 (centres unmarked) [Compound 1.212]
6. COCc1nnc2c(C(=O)C3=C(O)C4CCC(C4)C3=O)ccc(C(F)(F)F)n12 (centres unmarked) [Compound 1.16]

30%
70%
0%
80%
50%
100%
